- Tested on: Plasmodium berghei (Pb-Luc) exoerythrocytic-stage parasites
- settings: first series of columns; concentration 1.11111; fraction of control
measured endpoint: normalized signal at concentration 1.11111
Write the value as a bare number.

Completed entries (count: 2):
compound: O=C(O)C[C@H]1CC[C@@H]2[C@H](COC[C@@H](O)CN2S(=O)(=O)c2ccc(Oc3ccccc3)cc2)O1
value measured: 1.099
--
compound: CC(C)NC(=O)NCC[C@@H]1CC[C@H](NS(=O)(=O)c2ccc(Oc3ccccc3)cc2)[C@@H](CO)O1
value measured: 1.003

Looking up `C[C@@H]1CCCCO[C@H](CN(C)S(=O)(=O)c2ccc(F)cc2)[C@@H](C)CN([C@@H](C)CO)C(=O)c2cc(N(C)C)ccc2O1` , I found its normalized signal at concentration 1.11111 recorded as 1.048

---

- Tested on: Plasmodium berghei (Pb-Luc) exoerythrocytic-stage parasites
- assay notes: microbe, parasite or virus in culture
- settings: read-out: Inhibition% @ 50 uM rep2
measured endpoint: inhibition at 50 µM (%)
Your answer is read as %, so omit the unit and give the number.

compound: O=c1nc(C=Cc2ccc(Cl)cc2)oc2ccccc12
inhibition at 50 µM / %: 106

Please fill in: inhibition at 50 µM reported for `CCOC(=O)c1cnc2ccc(CC)cc2c1O` = 101

Reported inhibition at 50 µM ( `O=C(Nc1ccc(N2CCCCC2)c(Cl)c1)c1ccc(Br)o1` ) = 106

# compound CN1C=C(c2ccc3ccccc3n2)C(c2c[nH]c3ccccc23)c2ccccc21 (stereo not shown) ; its inhibition at 50 µM = 104

inhibition at 50 µM in this record for `CCOc1ccc(-c2nc(NC(=O)c3cccc(S(C)(=O)=O)c3)sc2C)cc1` : 98

The value of inhibition at 50 µM measured for the compound `Clc1cc(Br)ccc1-c1ccc(CNCC2CCNCC2)o1` turned out to be 105

response.value for COc1ccc(C2C(C(=O)Nc3cccc(OC)c3)c3ccccc3C(=O)N2C2CCCCC2)cc1 (stereo not shown) (field: inhibition at 50 µM) = 92

Memo: `O=C(NC1CCN(Cc2ccccc2)CC1)c1cc(-c2ccncc2)nc2ccc(Cl)cc12` , reported inhibition at 50 µM: 39

Measured inhibition at 50 µM, `Nc1ccn([C@@H]2O[C@H](CO)[C@@H](O)[C@H]2O)c(=O)n1` : 19

Briefly, inhibition at 50 µM measured for COc1ccc(CN2CCCC(C(=O)c3ccc(C(F)(F)F)cc3)C2)c(O)c1 (stereo not shown) : 104

Lab note: O=C(NCC1Cc2cccc(-c3ccncc3)c2O1)c1csc2c1CCCC2 (stereo not shown) gave inhibition at 50 µM of 102

---

- Test system: Plasmodium berghei (Pb-Luc) exoerythrocytic-stage parasites
- settings: concentration 0.00457247, second series
measured endpoint: normalised signal at concentration 0.00457247 (second series)
Write the number on its own, no unit after it.

Worked set:
compound: C[C@@H]1CCCCO[C@H](CN(C)S(=O)(=O)c2ccc(F)cc2)[C@H](C)CN([C@H](C)CO)C(=O)c2cc(N(C)C)ccc2O1
value measured: 0.8206
//
compound: C[C@@H]1CN([C@@H](C)CO)C(=O)c2cccc(NC(=O)c3ccc(-c4nccs4)cc3)c2O[C@@H]1CN(C)C(=O)Nc1ccc(C(F)(F)F)cc1
value measured: 0.6886

Next compound, please.
The recorded normalised signal at concentration 0.00457247 (second series) for entry `O=C(Nc1ccccc1F)N1CCCCN2[C@@H](CO)[C@@H](c3ccc(/C=C/c4ccccc4)cc3)[C@@H]2C1` equals 0.9578

---

- System: Plasmodium berghei (Pb-Luc) exoerythrocytic-stage parasites
- settings: second series; concentration 0.0137174; fraction of control
measured endpoint: normalized signal at concentration 0.0137174

Known results for compounds:
compound: CN(C)C(=O)c1ccc(-c2ccc([C@@H]3[C@H]4CN(C(=O)CC5CC5)CC(=O)N4[C@H]3CO)cc2)cc1
value measured: 0.89
--
compound: C[C@H]1CN([C@@H](C)CO)C(=O)c2cc(C#Cc3ccccc3)cnc2O[C@H]1CN(C)C(=O)c1ccccc1
value measured: 0.97
--
compound: CN(C)c1ccc2c(c1)[C@@H]1C[C@@H](CC(=O)NC3CCCCC3)O[C@@H](CO)[C@@H]1O2
value measured: 1.04
--
compound: CC(C)[C@H]1COCn2nncc2CCCC(=O)N1
value measured: 0.87
--
compound: C/C=C/c1ccc([C@H]2[C@@H](CO)N(CC3CCCCC3)[C@H]2CNC(C)C)cc1
value measured: 1.05
--
compound: COc1ccc(S(=O)(=O)N(C)C[C@H]2Oc3ccc(NC(=O)Cc4cn(C)c5ccccc45)cc3C(=O)N([C@H](C)CO)C[C@@H]2C)cc1
value measured: 0.8741

Note: attention shifts to another entry.
The compound `C[C@H](CO)N1C[C@H](C)[C@@H](CN(C)C(=O)Nc2ccc(C(F)(F)F)cc2)Oc2c(NC(=O)c3ccc(-c4nccs4)cc3)cccc2C1=O` showed normalized signal at concentration 0.0137174 equal to 1.075

---

- Tested on: Plasmodium berghei (Pb-Luc) exoerythrocytic-stage parasites
- assay notes: microbe, parasite or virus in culture
- settings: read-out: PbLuc IC50, dose response, 1/3 dilutions, max conc. 10 or 50 uM, unit inferred
measured endpoint: pIC50
Please note pIC50 is a logarithmic value: minus log10 of concentration in mol/L. Answer with that number alone.

Consider the worked cases shown below.
compound: CCCCOc1ccc(C(=O)Nc2cc(C)on2)cc1 [MMV007906]
measurement target: Plasmodium berghei (Pb-Luc) exoerythrocytic-stage parasites
pIC50: 6.04

compound: Cc1sc(NC(=O)c2ccccc2)c(C(c2cccs2)N2CCN(c3ccccc3)CC2)c1C (stereo not drawn) [MMV396652]
measurement target: Plasmodium berghei (Pb-Luc) exoerythrocytic-stage parasites
pIC50: 5.39

compound: CCOC(=O)c1cn(CC)c2cc(N(C)CCc3ccc(OC)c(OC)c3)c(F)cc2c1=O [MMV665977]
measurement target: Plasmodium berghei (Pb-Luc) exoerythrocytic-stage parasites
pIC50: 5.79

compound: COc1ccc(C2=C(c3ccc(OC)cc3)C3(c4ccccc4)C(=O)C2(c2ccccc2)C2C(=O)N(c4ccc(C)cc4)C(=O)C23)cc1 (stereo not drawn) [MMV666101]
measurement target: Plasmodium berghei (Pb-Luc) exoerythrocytic-stage parasites
pIC50: 6.70

compound: Cc1cc(N(C)C)nc(Nc2ccc(NC(=O)Nc3ccccc3)cc2)n1 [MMV020243]
measurement target: Plasmodium berghei (Pb-Luc) exoerythrocytic-stage parasites
pIC50: 5.84

Record CCOC(=O)c1cnc2c(CC)cccc2c1O [MMV498479] , field pIC50: 5.78

Item: C=CCc1c(C)nc2ccccc2c1O [MMV006913] | pIC50: 6.53

// field: pIC50; key: CC(C)(C)CC(C)(C)NCC(O)COc1ccc(Cl)cc1Cl (stereo not drawn) [MMV396794] ; value = 4.82

get_value(item= COc1ccccc1N=C1C(=O)c2ccccc2C(O)=C1N1CCCCC1 [MMV085203] , readout=pIC50) returns 6.25

---

- Tested on: HepG2-A16-CD81EGFP cells
- assay notes: cells
- settings: Homo sapiens, HepG2, read-out: HepG2 Tox% @ 50 uM rep1
measured endpoint: cytotoxicity at 50 µM (%)
Report the figure in % without appending any unit label.

See these solved cases before continuing.
molecule: CCN(CC)CCNc1ccnc2cc3ccccc3cc12
unit tag: %
cytotoxicity at 50 µM: 99

molecule: CC(O)(c1ccc(Cl)cc1)C(CN1CCCCC1)c1ccccc1 (stereo not drawn)
unit tag: %
cytotoxicity at 50 µM: 63

molecule: Cc1cc(C)c2c(c1)OCN(Cc1ccccc1Cl)C2
unit tag: %
cytotoxicity at 50 µM: 100

Now examine the next entry.
Just so you know, measured cytotoxicity at 50 µM for `COc1ccc(-c2cc3c(SCC(=O)Nc4cc(C(F)(F)F)ccc4Cl)nccn3n2)cc1` came out at 7

---

The reader will find reported inhibition at 50 µM values listed item by item below.
- Tested on: Plasmodium berghei (Pb-Luc) exoerythrocytic-stage parasites
- assay notes: microbe, parasite or virus in culture
- settings: read-out: Inhibition% @ 50 uM rep2
Numeric answer only, unit % assumed.

Example entries and their recorded answers appear below.
compound: O=C1C2=C(Nc3ccccc3SC2c2ccccc2)c2ccccc21 (centres unmarked)
measurement target: Plasmodium berghei (Pb-Luc) exoerythrocytic-stage parasites
inhibition at 50 µM (%): 104

compound: O=C(Nc1nc(-c2ccccn2)cs1)c1ccccc1Br
measurement target: Plasmodium berghei (Pb-Luc) exoerythrocytic-stage parasites
inhibition at 50 µM (%): 98

compound: Cc1cc(NC(=O)c2ccc(-c3ccccc3)cc2)no1
measurement target: Plasmodium berghei (Pb-Luc) exoerythrocytic-stage parasites
inhibition at 50 µM (%): 100

compound: Oc1c(C(Nc2ccccn2)c2cccc(Oc3ccccc3)c2)ccc2cccnc12 (centres unmarked)
measurement target: Plasmodium berghei (Pb-Luc) exoerythrocytic-stage parasites
inhibition at 50 µM (%): -6

compound: O=C(O)C1Cc2c([nH]c3ccccc23)C(c2ccc(Cl)cc2Cl)N1 (centres unmarked)
measurement target: Plasmodium berghei (Pb-Luc) exoerythrocytic-stage parasites
inhibition at 50 µM (%): 91

compound: CCOC(=O)c1cn(CC)c2cc(N3CCCCC3)c(F)cc2c1=O
measurement target: Plasmodium berghei (Pb-Luc) exoerythrocytic-stage parasites
inhibition at 50 µM (%): 105

Documented inhibition at 50 µM of `O=C(Nc1cccc(C2=NCCN2)c1)Nc1cccc(C2=NCCN2)c1` : 83

Given item `CN(C)c1ccc(-c2nc3cc(N)ccc3[nH]2)cc1` , the value recorded as its inhibition at 50 µM is 94

GET /value?item= `CCCOCc1cc(CN2CCN(c3cccc(Cl)c3)CC2)c(O)c2ncccc12` &field=inhibition at 50 µM returns 100

// inhibition at 50 µM value for `CCOC(=O)C1(Cc2ccccc2)CCN(Cc2cccc(OC)c2O)CC1` : 100

Measured inhibition at 50 µM of `Cc1ccccc1OCCSc1nc2ccc(NC(=O)c3cccs3)cc2s1` : 104

Reported inhibition at 50 µM of `CCOc1ccc(Nc2ccnc3cc(Cl)ccc23)cc1` : 91
